Biological target: recombinant human MAO-A (Homo sapiens)
Construct: purchased Sigma-Aldrich
Sequence (P21397 1-527): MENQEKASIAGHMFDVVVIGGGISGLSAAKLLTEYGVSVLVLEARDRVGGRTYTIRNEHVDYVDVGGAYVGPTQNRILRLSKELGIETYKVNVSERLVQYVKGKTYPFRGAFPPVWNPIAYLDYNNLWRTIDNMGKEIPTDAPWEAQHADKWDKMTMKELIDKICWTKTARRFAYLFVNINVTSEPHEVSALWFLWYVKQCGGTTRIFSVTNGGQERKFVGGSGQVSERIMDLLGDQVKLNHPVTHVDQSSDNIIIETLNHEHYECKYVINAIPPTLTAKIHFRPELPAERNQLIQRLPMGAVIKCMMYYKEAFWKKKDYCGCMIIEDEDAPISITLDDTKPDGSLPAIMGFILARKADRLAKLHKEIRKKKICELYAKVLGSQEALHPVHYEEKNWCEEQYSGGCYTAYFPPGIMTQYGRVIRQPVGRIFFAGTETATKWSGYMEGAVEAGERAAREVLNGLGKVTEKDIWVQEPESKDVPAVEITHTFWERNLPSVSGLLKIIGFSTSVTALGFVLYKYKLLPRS
Test: Inhibitory activity on recombinant human MAO-A (kynuramine, fluorescence)
Assay type: biochemical
pIC50: −log10 of the molar value.
readoutKind: pIC50

INSERT INTO results (compound, measuredresult) VALUES
  ('COc1c(O)cc2oc3cc(O)c(CC=C(C)C)c(O)c3c(=O)c2c1C/C=C(\C)CCC=C(C)C [Compound 5, cowanin]', 5.15);
